system: UACC-62 melanoma; assay: NCI tumour cell line growth inhibition, 48 h
Provide the recorded GI50 for the entries that follow.

Guide cases for GI50, answers given:
>>> meas_value("C=CCC(N[C@H](CO)c1ccccc1)c1cn(C(=O)OCC)c2ccccc12 (stereo not given in full)")
"16.4 µM"
>>> meas_value("Cc1ccc(-c2cc(C3=CC(=O)C=CC3=O)n(-c3ccc(S(N)(=O)=O)cc3)n2)cc1")
"39.5 µM"
>>> meas_value("CC(C)NC(=O)OCc1c(COC(=O)NC(C)C)c(-c2ccc(Cl)cc2)n2c1CCC2")
"2.08 µM"

Record GI50 for all entries; do not skip any.
1. N#CC1=C(N)NC(=O)NC12Nc1ccccc1S2 (stereo not given)
2. c1cn2cc(-c3ccc4cn[nH]c4c3)nc(Nc3ccc(N4CCOCC4)cc3)c2n1

Reply:
["14.7 µM", "11.8 µM"]

###

system: TK-10 renal; test: NCI tumour cell line growth inhibition, 48 h; in the data active = GI50 below about 0.43 µM; inactive = the rest
Could you please pick one outcome from this set? Yes = active, No = inactive

>>> cat("O=C(CCl)N1c2ccccc2Sc2ccc3ccccc3c21")
"No"
>>> cat("COc1ccc2nc3cc(Cl)ccc3c(NCCCNCCC(C)O)c2c1 (stereo not drawn)")
"No"
>>> cat("CCN1c2ccccc2C(Cl)(c2ccc(N(C)C)cc2)c2ccccc21")
"No"
>>> cat("C=CCC1(O)c2cccc(NCCO)c2C(=O)c2c(NCCO)cccc21")
"No"
>>> cat("CN1CCN(Cc2ccc(NC(=O)c3ccc(C#Cc4c(N)ncc5ccc(F)cc45)cc3)cc2C(F)(F)F)CC1")
"No"
>>> cat("CCN(CCCl)CCCNc1c2ccccc2nc2ccc(OC)cc12")
"No"

Task item: Recorded test outcome, item `Cc1cc(Cc2cc(C)cc(C(C)(C)C)c2O)c(O)c(C(C)(C)C)c1`
Reply: No

Task item: Record: C=CCC(N[C@H](CO)c1ccccc1)c1cn(C(=O)OCC)c2ccccc12 (stereo partly drawn)
Reply: No

###

tested on: RXF-631 renal; assay: NCI tumour cell line growth inhibition, 48 h
Provide the recorded TGI for the entries that follow.

>>> meas_value("COc1cc2c(cc1O)CC13CCC(=O)N1CCc1cc(OC)c(O)c-2c13 (stereo unspecified)")
"> 68.1 µM"
>>> meas_value("CC(=O)OC1(C)C(=O)OC1(C)C(C)=O (stereo unspecified)")
"> 100 µM"
>>> meas_value("NC(=O)C#CC(N)=O")
"> 100 µM"
>>> meas_value("NCCNc1cccc2ccccc12")
"> 100 µM"
>>> meas_value("O=C1c2c(n(Cc3ccccc3)c(=O)n2Cc2ccccc2)C(=O)N1Cc1ccccc1")
"> 100 µM"
>>> meas_value("O=C1c2c(nc3ccccc3c2-c2ccccc2)CN1Nc1ccccn1")
"50.7 µM"
>>> meas_value("C/C(=N\\N=C(/[Se])N1CC2CCC(CC2)C1)c1ccccn1")
"3.88 µM"
>>> meas_value("COc1ccc(/C(=N/Nc2ccccc2)C(c2ccc(OC)cc2)C2OC(=O)c3ccccc32)cc1 (stereo unspecified)")
"> 100 µM"

Record TGI for all entries; do not skip any.
1. O=C(OCC1CO1)c1cccs1 (stereo unspecified)
2. O=C(C(=O)N1CC2C=CC1CC2)c1c[nH]c2ccccc12 (stereo unspecified)
3. O=C1NC2(CCCCC2)C2CCCCCC12 (stereo unspecified)

Reply:
1. > 100 µM
2. > 100 µM
3. > 100 µM

###

tested on: ACHN renal; assay: NCI tumour cell line growth inhibition, 48 h
Provide the recorded TGI for the entries that follow.

Record TGI for all entries; do not skip any.
1. CCCCCCCCCCCCCCCCCCNc1ccn(C2OC(COP(=O)(O)OCC3OC(n4cc(C)c(=O)[nH]c4=O)CC3N=[N+]=[N-])C(O)C2O)c(=O)n1 (centres undefined)
2. O=c1cc(N2CCCC2)[nH]c(=O)n1-c1cccc(C(F)(F)F)c1
3. COc1ccccc1NC(=O)C1=C(C)NC(C)=C(C(=O)Nc2ccccc2OC)C1c1ccc(C)cc1

Reply:
> 100 µM
> 100 µM
> 100 µM

Record TGI for all entries; do not skip any.
1. COc1ccc2c(c1)C(c1ccccc1Cl)=Nc1c(n[nH]c1C)N2
2. COc1cc(-c2nc3sc4c(c3c(=O)[nH]2)CCCCCC4)cc(OC)c1OC
3. Cc1ccc2c(O)c(O)cc(NC(C)CCCN)c2n1 (centres undefined)
4. COC(OC)C1OC(CO)C(n2ccc(N)nc2=O)C1O (centres undefined)
5. NS(=O)(=O)c1cccc(N=Cc2c(O)[nH]c3ccccc23)c1

Reply:
1. > 25 µM
2. > 33.2 µM
3. > 100 µM
4. > 100 µM
5. > 25 µM

Task item: Lab request: please report TGI under test system ACHN renal for `Nc1c(C(=O)Nc2ccccc2)[n+]([O-])c2ccccc2[n+]1[O-]`
Reply: 30.1 µM

###

tested on: MDA-MB-435; experiment: NCI tumour cell line growth inhibition, 48 h
Provide the recorded TGI for the entries that follow.

>>> meas_value("CCOc1nc(-c2ccccc2)cc(-c2ccc(N3CCOCC3)cc2)c1C#N")
"> 100 µM"
>>> meas_value("O=C1Cc2c([nH]c3ccc(Br)cc23)-c2ccccc2N1")
"> 100 µM"

Now take the following compound into account.
Task item: # lookup: TGI of `COc1ccc(N=N/C(=N/NC(=O)c2ccccc2)c2ccc(N(CCC#N)CCC#N)cc2C)cc1`
Reply: > 100 µM

###

system: SN12C renal; assay: NCI tumour cell line growth inhibition, 48 h
assay.metric: TGI

>>> meas_value("C=CCNC(=O)NC1=CSC2=NC(=O)C3(NN12)c1ccccc1-c1ccccc13")
"> 10 µM"
>>> meas_value("COc1ccc(-n2c3c(c4c(CN5CCOCC5)c(O)ccc42)CCc2ccccc2C3=O)cc1")
"> 100 µM"
>>> meas_value("O=c1c2cc(I)ccc2nc(Sc2ncccc2[N+](=O)[O-])n1Cc1ccccc1")
"> 100 µM"
>>> meas_value("O=S1(=O)c2ccccc2C(=NO)c2ccccc21")
"> 100 µM"
>>> meas_value("[N-]=[N+]=NCc1cccc(Nc2cc(=O)[nH]c(=O)[nH]2)c1")
"> 100 µM"
>>> meas_value("Cc1ccc2c(c1)NC(=O)CC(c1ccccc1)=N2")
"> 100 µM"

Record TGI for all entries; do not skip any.
1. CO[C@@H]1CC(=O)C2(CC(=O)O[C@@H]2/C=C(\C)CCC=C(C)C)C[C@@H]1O (some centres not stated)
2. OC1(c2cc3ccccc3s2)CCCCC1
3. COc1ccc(N=N/C(=N/NC(=O)c2ccccc2)c2ccc(N(CCC#N)CCC#N)cc2C)cc1
4. CN1CCN(Cc2ccc(NC(=O)c3ccc(C#Cc4c(N)ncc5ccc(F)cc45)cc3)cc2C(F)(F)F)CC1
5. Cc1c(C)[n+](=O)c(C)c(C)n1[O-]
6. CSC1=C(C#N)C(=O)N(c2ccc(C)cc2)C(=S)C1C#N (configuration not stated)

Reply:
1: 1.64 µM; 2: > 100 µM; 3: > 100 µM; 4: 1.78 µM; 5: > 100 µM; 6: > 100 µM

###

test system: 786-0 renal; experiment: NCI tumour cell line growth inhibition, 48 h
Provide the recorded TGI for the entries that follow.

Guide cases for TGI, answers given:
>>> meas_value("O=c1[nH]nc(-c2ccccc2)n1/N=C/c1c(O)ccc2ccccc12")
"> 100 µM"
>>> meas_value("CCCNC(C#N)c1ccc(C(C#N)NCCC)cc1 (stereo not given)")
"> 100 µM"
>>> meas_value("Cc1[nH]c2ccccc2c1C=Nc1ccc(N=Cc2c(C)[nH]c3ccccc23)cc1")
"35.7 µM"
>>> meas_value("CCCCCCCCCCCCCCCCCCNc1ccn(C2OC(COP(=O)(O)OCC3OC(n4cc(C)c(=O)[nH]c4=O)CC3N=[N+]=[N-])C(O)C2O)c(=O)n1 (stereo not given)")
"> 100 µM"

Task item: # lookup: TGI of `Cc1cn(CC2=NCC(C)(C)N2)c(=O)[nH]c1=O`
Reply: > 100 µM

###

Provide the recorded TGI for the entries that follow.
tested on: SK-MEL-28 melanoma; test: NCI tumour cell line growth inhibition, 48 h

Record TGI for all entries; do not skip any.
1. CCCCOC(=O)NC(=O)c1cn(CCSCCOC(=O)NCCCCCCNC(=O)OCCSCCn2cc(C(=O)NC(=O)OCCCC)c(=O)[nH]c2=O)c(=O)[nH]c1=O
2. O=c1[nH]c(=O)n(Cc2ccccc2CO)cc1Sc1ccccc1
3. O=C(O)c1cc(N=Cc2ccccc2O)cc(C(=O)O)c1

Reply:
1. > 100 µM
2. > 100 µM
3. > 100 µM

Record TGI for all entries; do not skip any.
1. Cc1cc(=O)oc2cc(OCc3c(F)cccc3Cl)ccc12
2. Cc1c2c[n+](C(C)C)ccc2c(C)c2c1[nH]c1ccccc12

Reply:
["> 100 µM", "12.9 µM"]
